All values here come from ChEMBL document CHEMBL2311450.

tested on: Streptococcus pneumoniae; test: Antibacterial activity against erythromycin-resistant Streptococcus pneumoniae A22072 expressing mef gene by broth microdilution method; format: functional
recorded-endpoint: MIC (µg/mL)
Form entry: value (µg/mL) — number only.

Lab note: CC[C@H]1OC(=O)[C@H](C)[C@@H](O[C@H]2C[C@@](C)(OC)[C@@H](OC(=O)NCCCCNC(=O)c3ccc(OC)cc3)[C@H](C)O2)[C@H](C)[C@@H](O[C@@H]2O[C@H](C)C[C@H](N(C)C)[C@H]2O)[C@](C)(O)C[C@@H](C)CN(C)[C@H](C)[C@@H](OC(=O)NCCc2ccccc2Cl)[C@]1(C)O gave MIC of 0.5

Lab note: CC[C@H]1OC(=O)[C@H](C)[C@@H](O[C@H]2C[C@@](C)(OC)[C@@H](OC(=O)NCCCCNC(=O)c3ccc(OC)cc3)[C@H](C)O2)[C@H](C)[C@@H](O[C@@H]2O[C@H](C)C[C@H](N(C)C)[C@H]2O)[C@](C)(O)C[C@@H](C)CN(C)[C@H](C)[C@@H](OC(=O)NCCc2ccccc2)[C@]1(C)O gave MIC of 0.25

Lab note: CC[C@H]1OC(=O)[C@H](C)[C@@H](O[C@H]2C[C@@](C)(OC)[C@@H](OC(=O)NCCCCNC(=O)c3ccccc3OC)[C@H](C)O2)[C@H](C)[C@@H](O[C@@H]2O[C@H](C)C[C@H](N(C)C)[C@H]2O)[C@](C)(O)C[C@@H](C)CN(C)[C@H](C)[C@@H](OC(=O)NCCc2ccccc2)[C@]1(C)O gave MIC of 2

---

I'd be grateful if you could share measured MIC for these entries.
test system: Streptococcus pneumoniae; experiment: Antibacterial activity against erythromycin-resistant Streptococcus pneumoniae A22072 expressing mef gene by broth microdilution method; assay type: functional
Form entry: value (µg/mL) — number only.

Lab note: CC[C@H]1OC(=O)[C@H](C)[C@@H](O[C@H]2C[C@@](C)(OC)[C@@H](OC(=O)NCCCCNC(=O)c3ccc(OC)cc3)[C@H](C)O2)[C@H](C)[C@@H](O[C@@H]2O[C@H](C)C[C@H](N(C)C)[C@H]2O)[C@](C)(O)C[C@@H](C)CN(C)[C@H](C)[C@@H](OC(=O)NCc2ccccc2)[C@]1(C)O gave MIC of 0.12

Lab note: CC[C@H]1OC(=O)[C@H](C)[C@@H](O[C@H]2C[C@@](C)(OC)[C@@H](OC(=O)NCCNC(=O)c3cc([N+](=O)[O-])cc([N+](=O)[O-])c3)[C@H](C)O2)[C@H](C)[C@@H](O[C@@H]2O[C@H](C)C[C@H](N(C)C)[C@H]2O)[C@](C)(O)C[C@@H](C)CN(C)[C@H](C)[C@@H](OC(=O)NCCc2ccccc2)[C@]1(C)O gave MIC of 0.06

Lab note: CC[C@H]1OC(=O)[C@H](C)[C@@H](O[C@H]2C[C@@](C)(OC)[C@@H](OC(=O)NCCCCNC(=O)c3ccc(OC)cc3)[C@H](C)O2)[C@H](C)[C@@H](O[C@@H]2O[C@H](C)C[C@H](N(C)C)[C@H]2O)[C@](C)(O)C[C@@H](C)CN(C)[C@H](C)[C@@H](OC(=O)NCc2ccc(OC)cc2)[C@]1(C)O gave MIC of 0.5

---

test system: Streptococcus pneumoniae; assay: Antibacterial activity against erythromycin-resistant Streptococcus pneumoniae B1 expressing erm gene by broth microdilution method; type: functional
recorded-endpoint: MIC (mg/L)
Form entry: value (mg/L) — number only.

Lab note: CC[C@H]1OC(=O)[C@H](C)[C@@H](O[C@H]2C[C@@](C)(OC)[C@@H](OC(=O)NNC(=O)c3ccccc3OC)[C@H](C)O2)[C@H](C)[C@@H](O[C@@H]2O[C@H](C)C[C@H](N(C)C)[C@H]2O)[C@](C)(O)C[C@@H](C)CN(C)[C@H](C)[C@@H](OC(=O)NCCc2ccccc2)[C@]1(C)O gave MIC of 8

Lab note: CC[C@H]1OC(=O)[C@H](C)[C@@H](O[C@H]2C[C@@](C)(OC)[C@@H](OC(=O)NCCCCNC(=O)c3ccc(OC)cc3)[C@H](C)O2)[C@H](C)[C@@H](O[C@@H]2O[C@H](C)C[C@H](N(C)C)[C@H]2O)[C@](C)(O)C[C@@H](C)CN(C)[C@H](C)[C@@H](OC(=O)NCCc2ccc(F)cc2)[C@]1(C)O gave MIC of 4

Lab note: CC[C@H]1OC(=O)[C@H](C)[C@@H](O[C@H]2C[C@@](C)(OC)[C@@H](OC(=O)NCCCCNC(=O)c3ccccc3OC)[C@H](C)O2)[C@H](C)[C@@H](O[C@@H]2O[C@H](C)C[C@H](N(C)C)[C@H]2O)[C@](C)(O)C[C@@H](C)CN(C)[C@H](C)[C@@H](OC(=O)NCCc2ccccc2)[C@]1(C)O gave MIC of 8

Lab note: CC[C@H]1OC(=O)[C@H](C)[C@@H](O[C@H]2C[C@@](C)(OC)[C@@H](OC(=O)NCCCCNC(=O)c3ccc(OC)cc3)[C@H](C)O2)[C@H](C)[C@@H](O[C@@H]2O[C@H](C)C[C@H](N(C)C)[C@H]2O)[C@](C)(O)C[C@@H](C)CN(C)[C@H](C)[C@@H](OC(=O)NCCc2ccccc2Cl)[C@]1(C)O gave MIC of 2

Lab note: CC[C@H]1OC(=O)[C@H](C)[C@@H](O[C@H]2C[C@@](C)(OC)[C@@H](OC(=O)NCCCCNC(=O)c3ccc(OC)cc3)[C@H](C)O2)[C@H](C)[C@@H](O[C@@H]2O[C@H](C)C[C@H](N(C)C)[C@H]2O)[C@](C)(O)C[C@@H](C)CN(C)[C@H](C)[C@@H](OC(=O)NCc2ccc(F)cc2)[C@]1(C)O gave MIC of 4

Lab note: CC[C@H]1OC(=O)[C@H](C)[C@@H](O[C@H]2C[C@@](C)(OC)[C@@H](OC(=O)NCCCCNC(=O)c3ccc(OC)cc3)[C@H](C)O2)[C@H](C)[C@@H](O[C@@H]2O[C@H](C)C[C@H](N(C)C)[C@H]2O)[C@](C)(O)C[C@@H](C)CN(C)[C@H](C)[C@@H](OC(=O)NCc2ccc(OC)cc2)[C@]1(C)O gave MIC of 2

---

I'd be grateful if you could share measured MIC for these entries.
system: Streptococcus pneumoniae; experiment: Antibacterial activity against erythromycin-resistant Streptococcus pneumoniae A22072 expressing mef gene by broth microdilution method; assay type: functional

Lab note: CC[C@H]1OC(=O)[C@H](C)[C@@H](O[C@H]2C[C@@](C)(OC)[C@@H](OC(=O)NCCCCNC(=O)c3cc([N+](=O)[O-])cc([N+](=O)[O-])c3)[C@H](C)O2)[C@H](C)[C@@H](O[C@@H]2O[C@H](C)C[C@H](N(C)C)[C@H]2O)[C@](C)(O)C[C@@H](C)CN(C)[C@H](C)[C@@H](OC(=O)NCCc2ccccc2Cl)[C@]1(C)O gave MIC of 0.03 mg/L

Lab note: CC[C@H]1OC(=O)[C@H](C)[C@@H](O[C@H]2C[C@@](C)(OC)[C@@H](OC(=O)NCCNC(=O)c3ccc(C)cc3)[C@H](C)O2)[C@H](C)[C@@H](O[C@@H]2O[C@H](C)C[C@H](N(C)C)[C@H]2O)[C@](C)(O)C[C@@H](C)CN(C)[C@H](C)[C@@H](OC(=O)NCCc2ccccc2)[C@]1(C)O gave MIC of 0.12 mg/L

Lab note: CC[C@H]1OC(=O)[C@H](C)[C@@H](O[C@H]2C[C@@](C)(OC)[C@@H](OC(=O)NCCCCNC(=O)c3ccc(OC)cc3)[C@H](C)O2)[C@H](C)[C@@H](O[C@@H]2O[C@H](C)C[C@H](N(C)C)[C@H]2O)[C@](C)(O)C[C@@H](C)CN(C)[C@H](C)[C@@H](OC(=O)NCc2ccc(C)c(C)c2)[C@]1(C)O gave MIC of 0.5 mg/L

---

test system: Streptococcus pneumoniae; assay: Antibacterial activity against erythromycin-resistant Streptococcus pneumoniae B1 expressing erm gene by broth microdilution method; format: functional
recorded-endpoint: MIC (µg/mL)
Form entry: value (µg/mL) — number only.

Lab note: CC[C@H]1OC(=O)[C@H](C)[C@@H](O[C@H]2C[C@@](C)(OC)[C@@H](O)[C@H](C)O2)[C@H](C)[C@@H](O[C@@H]2O[C@H](C)C[C@H](N(C)C)[C@H]2O)[C@](C)(O)C[C@@H](C)C(=O)[C@H](C)[C@@H](O)[C@]1(C)O gave MIC of 128

Lab note: CC[C@H]1OC(=O)[C@H](C)[C@@H](O[C@H]2C[C@@](C)(OC)[C@@H](OC(=O)NCCCCNC(=O)c3ccc(OC)cc3)[C@H](C)O2)[C@H](C)[C@@H](O[C@@H]2O[C@H](C)C[C@H](N(C)C)[C@H]2O)[C@](C)(O)C[C@@H](C)CN(C)[C@H](C)[C@@H](OC(=O)NCc2ccc(F)c(F)c2)[C@]1(C)O gave MIC of 4

Lab note: CC[C@H]1OC(=O)[C@H](C)[C@@H](O[C@H]2C[C@@](C)(OC)[C@@H](OC(=O)NCCCCNC(=O)c3cc([N+](=O)[O-])cc([N+](=O)[O-])c3)[C@H](C)O2)[C@H](C)[C@@H](O[C@@H]2O[C@H](C)C[C@H](N(C)C)[C@H]2O)[C@](C)(O)C[C@@H](C)CN(C)[C@H](C)[C@@H](OC(=O)NCCc2ccccc2Cl)[C@]1(C)O gave MIC of 0.25

Lab note: CC[C@H]1OC(=O)[C@H](C)[C@@H](O[C@H]2C[C@@](C)(OC)[C@@H](OC(=O)NCCCCNC(=O)c3ccc(OC)cc3)[C@H](C)O2)[C@H](C)[C@@H](O[C@@H]2O[C@H](C)C[C@H](N(C)C)[C@H]2O)[C@](C)(O)C[C@@H](C)CN(C)[C@H](C)[C@@H](OC(=O)NCc2ccccc2)[C@]1(C)O gave MIC of 2

Lab note: CC[C@H]1OC(=O)[C@H](C)[C@@H](O[C@H]2C[C@@](C)(OC)[C@@H](O)[C@H](C)O2)[C@H](C)[C@@H](O[C@@H]2O[C@H](C)C[C@H](N(C)C)[C@H]2O)[C@](C)(OC)C[C@@H](C)C(=O)[C@H](C)[C@@H](O)[C@]1(C)O gave MIC of 64

Lab note: CC[C@H]1OC(=O)[C@H](C)[C@@H](O[C@H]2C[C@@](C)(OC)[C@@H](OC(=O)NNC(=O)c3ccc(Cl)cc3)[C@H](C)O2)[C@H](C)[C@@H](O[C@@H]2O[C@H](C)C[C@H](N(C)C)[C@H]2O)[C@](C)(O)C[C@@H](C)CN(C)[C@H](C)[C@@H](OC(=O)NCCc2ccccc2)[C@]1(C)O gave MIC of 2

Lab note: CC[C@H]1OC(=O)[C@H](C)[C@@H](O[C@H]2C[C@@](C)(OC)[C@@H](OC(=O)NCCNC(=O)c3ccc(C)cc3)[C@H](C)O2)[C@H](C)[C@@H](O[C@@H]2O[C@H](C)C[C@H](N(C)C)[C@H]2O)[C@](C)(O)C[C@@H](C)CN(C)[C@H](C)[C@@H](OC(=O)NCCc2ccccc2)[C@]1(C)O gave MIC of 2
